Collected pKi values appear next to each entry.
Target: Cholinesterase (Equus caballus)
Sequence (P81908 whole entry): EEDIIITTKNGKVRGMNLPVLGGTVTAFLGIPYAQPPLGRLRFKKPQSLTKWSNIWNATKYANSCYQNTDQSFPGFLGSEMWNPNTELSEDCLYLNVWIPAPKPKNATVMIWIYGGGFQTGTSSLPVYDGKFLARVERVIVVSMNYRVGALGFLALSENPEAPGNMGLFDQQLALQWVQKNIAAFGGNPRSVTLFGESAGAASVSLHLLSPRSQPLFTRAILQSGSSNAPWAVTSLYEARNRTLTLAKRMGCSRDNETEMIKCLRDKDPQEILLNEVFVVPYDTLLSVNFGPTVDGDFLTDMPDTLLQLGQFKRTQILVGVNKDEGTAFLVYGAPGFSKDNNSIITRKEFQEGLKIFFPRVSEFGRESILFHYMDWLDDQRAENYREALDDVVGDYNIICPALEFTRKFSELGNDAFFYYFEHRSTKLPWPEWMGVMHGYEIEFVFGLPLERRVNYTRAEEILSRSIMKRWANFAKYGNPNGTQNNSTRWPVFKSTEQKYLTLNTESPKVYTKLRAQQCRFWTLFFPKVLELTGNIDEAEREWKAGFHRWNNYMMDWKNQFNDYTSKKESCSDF
Assay: Competitive inhibition of equine serum BChE using butyrylthiocholine iodide as substrate preincubated for 10 mins followed by substrate addition by Lineweaver-Burk plot analysis
pKi: −log10 of the molar value.
property_name: pKi

[[record]]
record_smiles = "S=C(N/N=C/c1ccccc1)Nc1c2ccccc2nc2ccccc12"
tgt = "Cholinesterase (Equus caballus)"
property_name = "pKi"
obs_value = 6.14

[[record]]
record_smiles = "O=[N+]([O-])c1ccc(/C=N/NC(=S)Nc2c3ccccc3nc3ccccc23)cc1"
tgt = "Cholinesterase (Equus caballus)"
property_name = "pKi"
obs_value = 6.70


----------
Experiment: in vitro
Settings: human, sh-sy5y
Description: Neurotoxicity against human SH-SY5Y cells assessed as cell viability at 50 uM relative to control
property_name: viability at 50 µM (%)

[[record]]
compound = "COc1cc2c(cc1OC)C(=O)C(CC1CCN(Cc3ccccc3)CC1)C2 (stereo unspecified)"
property_name = "viability at 50 µM"
obs_value = 80


----------
Molecular target: Acetylcholinesterase (Electrophorus electricus, UniProt O42275)
Sequence (O42275 whole entry): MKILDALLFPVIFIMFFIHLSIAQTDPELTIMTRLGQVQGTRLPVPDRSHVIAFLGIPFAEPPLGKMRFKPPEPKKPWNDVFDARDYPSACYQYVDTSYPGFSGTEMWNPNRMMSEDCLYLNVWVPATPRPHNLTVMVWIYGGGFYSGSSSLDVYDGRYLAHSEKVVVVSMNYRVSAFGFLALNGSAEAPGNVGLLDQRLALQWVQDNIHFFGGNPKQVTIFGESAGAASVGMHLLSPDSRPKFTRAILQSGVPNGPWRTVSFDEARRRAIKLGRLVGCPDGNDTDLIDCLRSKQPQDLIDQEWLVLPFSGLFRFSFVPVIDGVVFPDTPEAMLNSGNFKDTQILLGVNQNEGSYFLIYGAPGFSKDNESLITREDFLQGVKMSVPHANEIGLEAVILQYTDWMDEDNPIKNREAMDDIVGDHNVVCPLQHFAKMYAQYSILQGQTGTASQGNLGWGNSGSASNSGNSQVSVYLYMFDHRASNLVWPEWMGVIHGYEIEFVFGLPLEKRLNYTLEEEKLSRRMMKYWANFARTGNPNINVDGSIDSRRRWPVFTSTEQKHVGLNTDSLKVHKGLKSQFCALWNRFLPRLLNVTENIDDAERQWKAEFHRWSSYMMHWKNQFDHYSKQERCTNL
Experiment: Competitive inhibition of electric eel AChE using acetylthiocholine iodide as substrate at 11 uM preincubated for 10 mins followed by substrate addition by Lineweaver-Burk plot analysis
property_name: Ki

[[record]]
record_smiles = "S=C(N/N=C/c1ccccc1)Nc1c2c(nc3ccccc13)CCCC2"
obs_value = "1660 nM"


----------
Heads up, these compounds all have IC50 values measured for Cholinesterase (Equus caballus).
property_name: IC50 (nM)

[[record]]
record_smiles = "CC(C)(C)c1cc(/C=N/NC(=S)Nc2c3ccccc3nc3ccccc23)cc(C(C)(C)C)c1O"
tgt = "Cholinesterase (Equus caballus)"
obs_value = 1150

[[record]]
record_smiles = "O=[N+]([O-])c1ccc(/C=N/NC(=S)Nc2c3ccccc3nc3ccccc23)cc1"
tgt = "Cholinesterase (Equus caballus)"
obs_value = 890

[[record]]
record_smiles = "S=C(N/N=C/c1ccc(Br)cc1)Nc1c2ccccc2nc2ccccc12"
tgt = "Cholinesterase (Equus caballus)"
obs_value = 3180

[[record]]
record_smiles = "Cc1[nH]c2ccccc2c1/C=N/NC(=S)Nc1c2ccccc2nc2ccccc12"
tgt = "Cholinesterase (Equus caballus)"
obs_value = 2010

[[record]]
record_smiles = "S=C(N/N=C/c1ccccc1)Nc1c2c(nc3ccccc13)CCCC2"
tgt = "Cholinesterase (Equus caballus)"
obs_value = 5380

[[record]]
record_smiles = "CN(C)c1ccc(/C=N/NC(=S)Nc2c3ccccc3nc3ccccc23)cc1"
tgt = "Cholinesterase (Equus caballus)"
obs_value = 1770

[[record]]
record_smiles = "COc1ccc(/C=N/NC(=S)Nc2c3ccccc3nc3ccccc23)cc1"
tgt = "Cholinesterase (Equus caballus)"
obs_value = 1040

[[record]]
record_smiles = "Fc1ccc(/C=N/NC(=S)Nc2c3ccccc3nc3ccccc23)cc1"
tgt = "Cholinesterase (Equus caballus)"
obs_value = 1350

[[record]]
record_smiles = "S=C(N/N=C/c1ccccc1)Nc1c2ccccc2nc2ccccc12"
tgt = "Cholinesterase (Equus caballus)"
obs_value = 710

[[record]]
record_smiles = "Oc1cccc(/C=N/NC(=S)Nc2c3c(nc4ccccc24)CCCC3)c1"
tgt = "Cholinesterase (Equus caballus)"
obs_value = 3030

[[record]]
record_smiles = "Oc1ccccc1/C=N/NC(=S)Nc1c2ccccc2nc2ccccc12"
tgt = "Cholinesterase (Equus caballus)"
obs_value = 3130

[[record]]
record_smiles = "S=C(N/N=C/c1ccc(Cl)cc1)Nc1c2ccccc2nc2ccccc12"
tgt = "Cholinesterase (Equus caballus)"
obs_value = 2190

[[record]]
record_smiles = "Cc1ccc(/C=N/NC(=S)Nc2c3ccccc3nc3ccccc23)c(O)c1"
tgt = "Cholinesterase (Equus caballus)"
obs_value = 3190

[[record]]
record_smiles = "COc1ccc(/C=N/NC(=S)Nc2c3ccccc3nc3ccccc23)cc1O"
tgt = "Cholinesterase (Equus caballus)"
obs_value = 3300

[[record]]
record_smiles = "S=C(N/N=C/c1c[nH]c2ccccc12)Nc1c2ccccc2nc2ccccc12"
tgt = "Cholinesterase (Equus caballus)"
obs_value = 1680

[[record]]
record_smiles = "S=C(N/N=C/c1cccs1)Nc1c2ccccc2nc2ccccc12"
tgt = "Cholinesterase (Equus caballus)"
obs_value = 2450

[[record]]
record_smiles = "Oc1ccc(/C=N/NC(=S)Nc2c3ccccc3nc3ccccc23)cc1"
tgt = "Cholinesterase (Equus caballus)"
obs_value = 1730

[[record]]
record_smiles = "S=C(N/N=C/c1ccc(Cl)cc1Cl)Nc1c2ccccc2nc2ccccc12"
tgt = "Cholinesterase (Equus caballus)"
obs_value = 1060

[[record]]
record_smiles = "Oc1cccc(/C=N/NC(=S)Nc2c3ccccc3nc3ccccc23)c1"
tgt = "Cholinesterase (Equus caballus)"
obs_value = 2280

[[record]]
record_smiles = "S=C(N/N=C/c1ccco1)Nc1c2ccccc2nc2ccccc12"
tgt = "Cholinesterase (Equus caballus)"
obs_value = 4400

[[record]]
record_smiles = "Cc1ccc(/C=N/NC(=S)Nc2c3ccccc3nc3ccccc23)cc1"
tgt = "Cholinesterase (Equus caballus)"
obs_value = 1540


----------
Collected Activity values appear next to each entry.
Assay: Antioxidant activity of the compound assessed as DPPH radical scavenging activity at 100 uM incubated under light for 30 mins by spectrophotometric analysis relative to control
Assay type: functional
property_name: Activity (%)

[[record]]
record_smiles = "S=C(N/N=C/c1cccs1)Nc1c2ccccc2nc2ccccc12"
obs_value = 41.5

[[record]]
record_smiles = "S=C(N/N=C/c1c[nH]c2ccccc12)Nc1c2ccccc2nc2ccccc12"
obs_value = 23.8

[[record]]
record_smiles = "S=C(N/N=C/c1ccccc1)Nc1c2ccccc2nc2ccccc12"
obs_value = 37.9

[[record]]
record_smiles = "CC(C)(C)c1cc(/C=N/NC(=S)Nc2c3ccccc3nc3ccccc23)cc(C(C)(C)C)c1O"
obs_value = 69

[[record]]
record_smiles = "S=C(N/N=C/c1ccco1)Nc1c2ccccc2nc2ccccc12"
obs_value = 43.9

[[record]]
record_smiles = "Fc1ccc(/C=N/NC(=S)Nc2c3ccccc3nc3ccccc23)cc1"
obs_value = 44.3

[[record]]
record_smiles = "Cc1ccc(/C=N/NC(=S)Nc2c3ccccc3nc3ccccc23)c(O)c1"
obs_value = 28.7

[[record]]
record_smiles = "Cc1[nH]c2ccccc2c1/C=N/NC(=S)Nc1c2ccccc2nc2ccccc12"
obs_value = 61

[[record]]
record_smiles = "Oc1cccc(/C=N/NC(=S)Nc2c3c(nc4ccccc24)CCCC3)c1"
obs_value = 12.1

[[record]]
record_smiles = "S=C(N/N=C/c1cccnc1)Nc1c2ccccc2nc2ccccc12"
obs_value = 15.5

[[record]]
record_smiles = "Oc1ccccc1/C=N/NC(=S)Nc1c2ccccc2nc2ccccc12"
obs_value = 15.8

[[record]]
record_smiles = "S=C(N/N=C/c1ccccc1)Nc1c2c(nc3ccccc13)CCCC2"
obs_value = 32.2

[[record]]
record_smiles = "COc1ccc(/C=N/NC(=S)Nc2c3ccccc3nc3ccccc23)cc1O"
obs_value = 41.2


----------
Assay: Neurotoxicity against human SH-SY5Y cells assessed as cell viability at 12.5 to 50 uM relative to control
Type: toxicity, cell-based
Settings: dose 12.5-50 µM, read-out: Activity
property_name: viability at 50 µM

[[record]]
record_smiles = "CC(C)(C)c1cc(/C=N/NC(=S)Nc2c3ccccc3nc3ccccc23)cc(C(C)(C)C)c1O"
property_name = "viability at 50 µM"
obs_value = "≤ 70%"

[[record]]
record_smiles = "Fc1ccc(/C=N/NC(=S)Nc2c3ccccc3nc3ccccc23)cc1"
property_name = "viability at 50 µM"
obs_value = "≤ 70%"


----------
Heads up, these molecules all have IC50 values measured for Acetylcholinesterase (Electrophorus electricus).
property_name: IC50 (µM)

[[record]]
record_smiles = "Oc1ccccc1/C=N/NC(=S)Nc1c2ccccc2nc2ccccc12"
obs_value = 10.8

[[record]]
record_smiles = "S=C(N/N=C/c1ccccc1)Nc1c2ccccc2nc2ccccc12"
obs_value = 2.47

[[record]]
record_smiles = "Oc1ccc(/C=N/NC(=S)Nc2c3ccccc3nc3ccccc23)cc1"
obs_value = 11.5

[[record]]
record_smiles = "Cc1[nH]c2ccccc2c1/C=N/NC(=S)Nc1c2ccccc2nc2ccccc12"
obs_value = 8.57

[[record]]
record_smiles = "COc1ccc(/C=N/NC(=S)Nc2c3ccccc3nc3ccccc23)cc1"
obs_value = 6.2

[[record]]
record_smiles = "O=[N+]([O-])c1ccc(/C=N/NC(=S)Nc2c3ccccc3nc3ccccc23)cc1"
obs_value = 8.64

[[record]]
record_smiles = "CC(C)(C)c1cc(/C=N/NC(=S)Nc2c3ccccc3nc3ccccc23)cc(C(C)(C)C)c1O"
obs_value = 10.5

[[record]]
record_smiles = "COc1ccc(/C=N/NC(=S)Nc2c3ccccc3nc3ccccc23)cc1O"
obs_value = 43.3

[[record]]
record_smiles = "S=C(N/N=C/c1ccc(Cl)cc1Cl)Nc1c2ccccc2nc2ccccc12"
obs_value = 6.11

[[record]]
record_smiles = "Oc1cccc(/C=N/NC(=S)Nc2c3ccccc3nc3ccccc23)c1"
obs_value = 22

[[record]]
record_smiles = "S=C(N/N=C/c1c[nH]c2ccccc12)Nc1c2ccccc2nc2ccccc12"
obs_value = 9.39

[[record]]
record_smiles = "S=C(N/N=C/c1ccco1)Nc1c2ccccc2nc2ccccc12"
obs_value = 28

[[record]]
record_smiles = "S=C(N/N=C/c1ccccc1)Nc1c2c(nc3ccccc13)CCCC2"
obs_value = 13.6

[[record]]
record_smiles = "CN(C)c1ccc(/C=N/NC(=S)Nc2c3ccccc3nc3ccccc23)cc1"
obs_value = 7.6

[[record]]
record_smiles = "S=C(N/N=C/c1ccc(Br)cc1)Nc1c2ccccc2nc2ccccc12"
obs_value = 9.79

[[record]]
record_smiles = "S=C(N/N=C/c1ccc(Cl)cc1)Nc1c2ccccc2nc2ccccc12"
obs_value = 10.1

[[record]]
record_smiles = "Cc1ccc(/C=N/NC(=S)Nc2c3ccccc3nc3ccccc23)cc1"
obs_value = 2.78

[[record]]
record_smiles = "Fc1ccc(/C=N/NC(=S)Nc2c3ccccc3nc3ccccc23)cc1"
obs_value = 12.8

[[record]]
record_smiles = "Cc1ccc(/C=N/NC(=S)Nc2c3ccccc3nc3ccccc23)c(O)c1"
obs_value = 11.3

[[record]]
record_smiles = "S=C(N/N=C/c1cccs1)Nc1c2ccccc2nc2ccccc12"
obs_value = 34.6


Origin of measurements: ChEMBL document CHEMBL6096640
